protein stability index reference
test-name: protein stability index of a GFP-peptide fusion (yeast GPS) (PSI 1-4); higher = more stable; sorted into four equal gates, so the index is relative within each strain
conditions-used: san1∆
Simply state the number, no unit and no words.

Q. Which protein stability index value is on record for QLEDESSRLEFVKGISR [YML103C/NUP188] ?
A. 3.33

Q. Which protein stability index value is on record for ENIIQMEMIENRTMDGK [FAS1] ?
A. 2.81

Q. Which protein stability index value is on record for DSNKTLLHNHLKSIESL [SMC2] ?
A. 1.49

Q. Which protein stability index value is on record for KTVAVDSVFEQNEMIDA [RPL3] ?
A. 2.31

Q. Which protein stability index value is on record for QALIHGLNRHYYSLNID [RPN11] ?
A. 2.44

Q. Which protein stability index value is on record for PINLQNGEEDEVALFSQ [YLR335W/NUP2] ?
A. 3.22

Q. Which protein stability index value is on record for KTAPIQESFVPNSERSG [YOR098C/NUP1] ?
A. 1.4
